Origin of values: paper PMC5861439

target: Saccharomyces cerevisiae Asf1 (2–169) (Saccharomyces cerevisiae, UniProt P32447 2-169); assay: ITC
Sequence (P32447 2-169): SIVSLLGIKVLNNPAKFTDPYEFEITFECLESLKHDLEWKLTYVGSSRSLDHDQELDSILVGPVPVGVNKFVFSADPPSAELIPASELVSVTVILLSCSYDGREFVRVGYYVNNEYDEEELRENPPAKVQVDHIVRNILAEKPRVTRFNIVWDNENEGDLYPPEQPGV
assayEndpoint: pKd
Give bare numbers, as −log10 of the molar value.

Prompt: Sample LAITMLKPRKKAKAL [Rtt109^419–433 peptide] — what was its pKd?
Completion: 5.11
